Attribution: ChEMBL document CHEMBL1914441

# Experimental target: Prostaglandin D2 receptor (Homo sapiens)
# Sequence (Q13258 whole entry): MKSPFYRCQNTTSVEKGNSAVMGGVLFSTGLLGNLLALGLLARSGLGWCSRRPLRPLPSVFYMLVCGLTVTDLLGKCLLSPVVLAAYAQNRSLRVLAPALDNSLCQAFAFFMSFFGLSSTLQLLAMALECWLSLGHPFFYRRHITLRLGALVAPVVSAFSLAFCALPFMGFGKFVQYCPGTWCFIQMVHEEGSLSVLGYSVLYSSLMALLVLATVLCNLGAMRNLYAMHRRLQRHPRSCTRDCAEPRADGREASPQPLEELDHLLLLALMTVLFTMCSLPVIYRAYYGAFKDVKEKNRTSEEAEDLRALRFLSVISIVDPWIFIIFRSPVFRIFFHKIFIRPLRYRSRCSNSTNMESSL
# Test description: Displacement of [3H]-PGD2 from human DP1 receptor expressed in human platelet membranes
pIC50: −log10 of the molar value.
Experimental endpoint: pIC50

1) CCN(Cc1cc(C(F)(F)F)ccc1-c1cc(CC(=O)O)ccc1OC)C(=O)OCc1ccccc1: 5.40
2) COc1ccc(CC(=O)O)cc1-c1ccc(C(F)(F)F)cc1CN1C(=O)O[C@H](c2ccccc2)[C@@H]1C: 4.50

I: CCN(Cc1cc(C(F)(F)F)ccc1-c1cc(CC(=O)O)ccc1OC)C(=O)OC
II: CCN(Cc1cc(C(F)(F)F)ccc1-c1cc(CC(=O)O)ccc1OC)C(=O)OCc1ccc(Cl)cc1
III: COC(=O)N(Cc1ccccc1)Cc1cc(C(F)(F)F)ccc1-c1cc(CC(=O)O)ccc1OC
query: Hey, can you sort those molecules up there by pIC50, smallest first? # output: labels, in the requested order
result: I, III, II
(I: 4.44, III: 4.90, II: 5.40)

----------
# Experimental target: Prostaglandin D2 receptor 2 (Homo sapiens, UniProt Q9Y5Y4)
# Sequence (Q9Y5Y4 whole entry): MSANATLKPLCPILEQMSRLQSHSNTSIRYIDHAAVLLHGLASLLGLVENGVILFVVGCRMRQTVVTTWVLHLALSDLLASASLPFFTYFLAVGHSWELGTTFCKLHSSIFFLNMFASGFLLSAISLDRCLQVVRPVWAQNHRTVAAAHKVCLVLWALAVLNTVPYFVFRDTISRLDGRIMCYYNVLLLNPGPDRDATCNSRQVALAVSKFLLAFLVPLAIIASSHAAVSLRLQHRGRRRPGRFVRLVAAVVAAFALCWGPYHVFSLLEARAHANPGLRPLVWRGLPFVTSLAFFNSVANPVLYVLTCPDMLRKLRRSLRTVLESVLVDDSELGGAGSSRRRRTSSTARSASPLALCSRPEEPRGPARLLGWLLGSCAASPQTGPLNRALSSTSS
# Test description: Displacement of [3H]-PGD2 from human prostanoid DP2 receptor expressed in human 293T cells by liquid scintillation counting
# Type: cell-based
Experimental endpoint: IC50 (nM)

1. COC(=O)N(Cc1ccccc1)Cc1cc(C(F)(F)F)ccc1-c1cc(CC(=O)O)ccc1OC: 8

a: COc1ccc(CC(=O)O)cc1-c1ccc(C(F)(F)F)cc1CN(C(=O)OCc1ccccc1)C1CCCC1
b: COc1ccc(CC(=O)O)cc1-c1ccc(C(F)(F)F)cc1CNC(=O)OCc1ccccc1
c: COC(=O)N(CCc1ccccc1)Cc1cc(C(F)(F)F)ccc1-c1cc(CC(=O)O)ccc1OC
query: Hey, can you sort those molecules up there by IC50, smallest first? # output: labels, in the requested order
result: a, c, b
(a: 11 nM, c: 24 nM, b: 45 nM)

----------
# Test description: Half life in rat at 2 mg/kg, iv
# Format: ADME, organism-based
# Design: dose 2 mg/kg, route intravenous
# Condition set: in vivo
Experimental endpoint: half-life (h)
Just the number in h, nothing appended.

query: Query (molecule): CCN(Cc1cc(C(F)(F)F)ccc1-c1cc(CC(=O)O)ccc1OC)C(=O)OCc1ccccc1 ; field requested: half-life
result: 8.7

----------
# Experimental target: Cytochrome P450 2D6 (Homo sapiens, UniProt P10635)
# Sequence (P10635 whole entry): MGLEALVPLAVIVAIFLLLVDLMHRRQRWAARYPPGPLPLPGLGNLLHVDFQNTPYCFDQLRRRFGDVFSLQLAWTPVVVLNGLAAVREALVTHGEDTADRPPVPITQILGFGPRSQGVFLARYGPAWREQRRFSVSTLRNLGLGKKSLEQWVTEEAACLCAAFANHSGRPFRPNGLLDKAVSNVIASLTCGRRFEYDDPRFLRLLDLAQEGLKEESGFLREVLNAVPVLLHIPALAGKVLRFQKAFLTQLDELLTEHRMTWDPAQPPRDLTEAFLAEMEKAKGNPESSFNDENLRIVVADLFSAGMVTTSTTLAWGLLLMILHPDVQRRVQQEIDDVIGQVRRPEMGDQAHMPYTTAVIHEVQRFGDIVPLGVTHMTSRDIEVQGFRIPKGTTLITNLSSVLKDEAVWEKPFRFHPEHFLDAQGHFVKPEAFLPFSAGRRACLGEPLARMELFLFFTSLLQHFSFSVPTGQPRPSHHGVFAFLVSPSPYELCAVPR
pIC50: −log10 of the molar value.
pIC50 by entry:

1. CCN(Cc1cc(C(F)(F)F)ccc1-c1cc(CC(=O)O)ccc1OC)C(=O)OCc1ccccc1: < 4.52
2. CCN(Cc1cc(C(F)(F)F)ccc1-c1cc(CC(=O)O)ccc1OC)C(=O)OCc1ccc(Cl)cc1: < 4.52

Let us examine a further case.
query: Query (molecule): COc1ccc(CC(=O)O)cc1-c1ccc(C(F)(F)F)cc1CN1C(=O)O[C@H](c2ccccc2)[C@@H]1C ; field requested: pIC50
result: < 4.52

----------
# Experimental target: Prostaglandin D2 receptor 2 (Homo sapiens, UniProt Q9Y5Y4)
# Test description: Displacement of [3H]-PGD2 from human prostanoid DP2 receptor expressed in human 293T cells by liquid scintillation counting
# Type: cell-based
pIC50: −log10 of the molar value.
Experimental endpoint: pIC50

Example entries and their recorded answers appear below.
1. COc1ccc(CC(=O)O)cc1-c1ccc(C(F)(F)F)cc1CN(C)C(=O)OCc1ccccc1: 8.40
2. COc1ccc(CC(=O)O)cc1-c1ccc(C(F)(F)F)cc1CN1C(=O)O[C@H](c2ccccc2)[C@@H]1C: 6.74
3. COc1ccc(-c2cc(CC(=O)O)ccc2OC)c(CN2C(=O)O[C@H](c3ccccc3)[C@@H]2C)c1: 5.89
4. C[C@H]1[C@@H](c2ccccc2)OC(=O)N1Cc1cc(C(F)(F)F)ccc1-c1ccccc1CC(=O)O: 4.39

P: COc1ccc(CC(=O)O)cc1-c1ccccc1CN1C(=O)O[C@H](c2ccccc2)[C@@H]1C
Q: C[C@H]1[C@@H](c2ccccc2)OC(=O)N1Cc1cc(C(F)(F)F)ccc1-c1cccc(CC(=O)O)c1
query: Kindly identify the item with the lower pIC50 figure among these two: P and Q // respond with label for picked entry
result: P

I: CCN(Cc1cc(C(F)(F)F)ccc1-c1cc(CC(=O)O)ccc1OC)C(=O)OCc1cccc(Cl)c1
II: C[C@H]1[C@@H](c2ccccc2)OC(=O)N1Cc1cc(C(F)(F)F)ccc1-c1cccc(C(=O)O)c1
query: Kindly identify the item with the lower pIC50 figure among these two: I and II // respond with label for picked entry
result: II
(II: 4.57, I: 8.70)

----------
# Experimental target: Prostaglandin D2 receptor 2 (Homo sapiens, UniProt Q9Y5Y4)
# Sequence (Q9Y5Y4 whole entry): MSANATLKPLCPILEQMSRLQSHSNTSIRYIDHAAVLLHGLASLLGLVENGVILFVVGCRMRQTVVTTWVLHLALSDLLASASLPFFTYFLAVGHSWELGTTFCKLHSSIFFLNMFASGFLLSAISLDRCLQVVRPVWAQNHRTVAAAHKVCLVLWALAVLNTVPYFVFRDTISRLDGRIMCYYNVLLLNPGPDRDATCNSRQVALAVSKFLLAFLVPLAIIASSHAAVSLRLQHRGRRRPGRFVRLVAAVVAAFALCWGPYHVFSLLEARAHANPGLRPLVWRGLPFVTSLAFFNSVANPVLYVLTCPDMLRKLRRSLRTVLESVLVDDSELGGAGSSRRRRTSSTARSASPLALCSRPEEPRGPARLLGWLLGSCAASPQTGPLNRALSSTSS
# Test description: Displacement of [3H]-PGD2 from human prostanoid DP2 receptor expressed in human 293T cells by liquid scintillation counting in presence of 0.2 % human serum albumin
# Format: cell-based
Experimental endpoint: IC50 (nM)

Example entries and their recorded answers appear below.
1. C[C@H]1[C@@H](c2ccccc2)OC(=O)N1Cc1cc(C(F)(F)F)ccc1-c1ccccc1CCC(=O)O: 38000
2. C[C@H]1[C@@H](c2ccccc2)OC(=O)N1Cc1cc(F)ccc1-c1ccc(CC(=O)O)cc1: 1800
3. C[C@H]1[C@@H](c2ccccc2)OC(=O)N1Cc1cc(C(F)(F)F)ccc1-c1cccc(CCC(=O)O)c1: 75000
4. COC(=O)N(Cc1ccccc1)Cc1cc(C(F)(F)F)ccc1-c1cc(CC(=O)O)ccc1OC: 31
5. COC(=O)N(CCc1ccccc1)Cc1cc(C(F)(F)F)ccc1-c1cc(CC(=O)O)ccc1OC: 62
6. COc1ccc(CC(=O)O)cc1-c1ccc(F)cc1CN1C(=O)O[C@H](c2ccccc2)[C@@H]1C: 1300
7. COc1ccc(-c2cc(CC(=O)O)ccc2OC)c(CN2C(=O)O[C@H](c3ccccc3)[C@@H]2C)c1: 6100
8. COc1ccc(CC(=O)O)cc1-c1ccc(C(F)(F)F)cc1CN(C(=O)OCc1ccccc1)C1CCCC1: 53
9. C[C@H]1[C@@H](c2ccccc2)OC(=O)N1Cc1cc(C(F)(F)F)ccc1-c1ccccc1CC(=O)O: 62000
10. COc1ccc(CC(=O)O)cc1-c1ccccc1CN1C(=O)O[C@H](c2ccccc2)[C@@H]1C: 2000

P: CCN(Cc1cc(C(F)(F)F)ccc1-c1cc(CC(=O)O)ccc1OC)C(=O)OCc1cc(F)cc(F)c1
Q: C[C@H]1[C@@H](c2ccccc2)OC(=O)N1Cc1cc(C(F)(F)F)ccc1-c1cccc(C(=O)O)c1
R: C[C@H]1[C@@H](c2ccccc2)OC(=O)N1Cc1cc(C(F)(F)F)ccc1-c1cccc(CC(=O)O)c1
S: COc1ccc(CC(=O)O)cc1-c1ccc(C(F)(F)F)cc1CN(C)C(=O)OCc1ccccc1
query: Hey, can you sort those compounds up there by IC50, smallest first? # output: labels, in the requested order
result: P, S, R, Q

1: COc1ccc(CC(=O)O)cc1-c1ccc(C(F)(F)F)cc1CN1C(=O)O[C@H](c2ccccc2)[C@@H]1C
2: CCN(Cc1cc(C(F)(F)F)ccc1-c1cc(CC(=O)O)ccc1OC)C(=O)OCc1cccc(Cl)c1
query: Kindly identify the item with the lower IC50 figure among these two: 1 and 2 // respond with label for picked entry
result: 2

I: COc1ccc(CC(=O)O)cc1-c1ccc(C(F)(F)F)cc1CNC(=O)OCc1ccccc1
II: CCN(Cc1cc(C(F)(F)F)ccc1-c1cc(CC(=O)O)ccc1OC)C(=O)OCc1ccccc1Cl
query: For the two items I and II , which reports the higher IC50 value? // respond with label for picked entry
result: I
